MEASUREMENT_TARGET: human HPK1 (Homo sapiens, UniProt Q92918)
Sequence (Q92918 whole entry): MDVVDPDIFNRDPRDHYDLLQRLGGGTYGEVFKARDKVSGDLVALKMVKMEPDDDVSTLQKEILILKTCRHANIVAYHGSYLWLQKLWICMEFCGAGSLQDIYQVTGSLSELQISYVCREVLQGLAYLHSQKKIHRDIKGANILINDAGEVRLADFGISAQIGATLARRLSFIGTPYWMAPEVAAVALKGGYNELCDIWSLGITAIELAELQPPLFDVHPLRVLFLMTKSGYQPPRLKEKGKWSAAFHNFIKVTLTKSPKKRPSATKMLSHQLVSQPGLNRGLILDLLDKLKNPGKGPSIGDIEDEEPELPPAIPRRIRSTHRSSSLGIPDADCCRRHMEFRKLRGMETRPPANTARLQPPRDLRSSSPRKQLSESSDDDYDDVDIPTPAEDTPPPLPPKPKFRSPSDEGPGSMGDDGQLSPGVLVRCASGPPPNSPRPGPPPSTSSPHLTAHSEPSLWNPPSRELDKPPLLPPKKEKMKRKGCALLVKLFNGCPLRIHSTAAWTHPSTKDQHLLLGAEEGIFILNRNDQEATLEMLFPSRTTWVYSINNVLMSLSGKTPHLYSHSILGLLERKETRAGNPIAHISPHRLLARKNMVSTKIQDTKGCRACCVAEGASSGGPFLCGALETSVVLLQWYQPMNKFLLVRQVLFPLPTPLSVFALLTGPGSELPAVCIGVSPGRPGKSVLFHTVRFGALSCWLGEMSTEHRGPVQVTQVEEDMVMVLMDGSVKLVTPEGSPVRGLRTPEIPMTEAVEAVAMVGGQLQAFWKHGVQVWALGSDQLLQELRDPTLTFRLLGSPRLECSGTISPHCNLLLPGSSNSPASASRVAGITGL
ASSAY: HPK1 protein degradation assay (WB) in RAMOS cell line
Format: cell-based
Parameters: The RAMOS cell line was selected as the degradation cell line; endogenous in cells; host or cells: RAMOS
MEASUREMENT_CONDITIONS: RAMOS cells, 16 h, Western blot
EXPERIMENTAL_ENDPOINT: Dmax (%)

[
  {
    "COMPOUND": "[2H]C([2H])([2H])n1cc(-c2c[nH]c3ncc(-c4ccc(N5CCC(CC6CCN(C(=O)c7ccc(Cl)c(N8CCC(=O)NC8=O)c7)CC6)CC5)nc4)nc23)cn1 [Compound C160]",
    "EXPERIMENTAL_ENDPOINT": "Dmax",
    "ASSAY_VALUE": 88.8
  },
  {
    "COMPOUND": "CCn1cc(-c2c[nH]c3ncc(-c4ccc(N5CCC(CC6CCN(C(=O)c7ccc(Cl)c(N8CCC(=O)NC8=O)c7)CC6)CC5)nc4)nc23)cn1 [Compound C162]",
    "EXPERIMENTAL_ENDPOINT": "Dmax",
    "ASSAY_VALUE": 86.5
  },
  {
    "COMPOUND": "CCN1CCC(n2cc(-c3c[nH]c4ncc(-c5ccc(N6CCC(CN7CCN(C(=O)c8ccc(Cl)c(N9CCC(=O)NC9=O)c8)CC7)CC6)nc5)nc34)cn2)CC1 [Compound C084]",
    "EXPERIMENTAL_ENDPOINT": "Dmax",
    "ASSAY_VALUE": 93
  },
  {
    "COMPOUND": "CCN1CCC(n2cc(-c3c[nH]c4ncc(-c5ccc(N6CCC(OC7CCN(C(=O)c8ccc(Cl)c(N9CCC(=O)NC9=O)c8)CC7)CC6)c(C)c5)nc34)cn2)CC1 [Compound C132]",
    "EXPERIMENTAL_ENDPOINT": "Dmax",
    "ASSAY_VALUE": 73
  },
  {
    "COMPOUND": "O=C1CCN(c2cc(C(=O)N3CCC(CC4CCN(c5ccc(-c6cnc7[nH]cc(-c8cnn(C(F)F)c8)c7n6)cn5)CC4)CC3)ccc2Cl)C(=O)N1 [Compound C167]",
    "EXPERIMENTAL_ENDPOINT": "Dmax",
    "ASSAY_VALUE": 66.8
  }
]

All figures here come from patent US20260116884A1.
